# procedure summary: AUC (0 to 8 hrs) in Sprague-Dawley rat plasma at 10 mg/kg, po by LC-MS/MS analysis
# Type: ADME, organism-based
# Set-up: dose 10 mg/kg, time < 8 hr, route oral
result type: AUC(0-t) at 8 h
Could you kindly put the unit after your number?

Reported AUC(0-t) at 8 h of "NC(=O)n1cc(NC(=O)N2CCC[C@H]2C(=O)Nc2cccc(OC(F)(F)F)c2)c2ccccc21" : 4.99 µM·h

----------
# procedure summary: Clearance in Sprague-Dawley rat at 1 mg/kg, iv administered as bolus dose by LC-MS/MS analysis
# Assay type: ADME, organism-based
# protocol conditions: in vivo
result type: clearance (mL/min/kg)
One number for each entry, in mL/min/kg.

Reported clearance of "NC(=O)n1cc(NC(=O)N2CCC[C@H]2C(=O)Nc2cccc(OC(F)(F)F)c2)c2ccccc21" : 21
